This collection of values is drawn from PubChem BioAssay AID179.

system: CEM cells HIV-1 protection, formazan growth assay; experiment: NCI AIDS Antiviral Assay; details: measured here: growth of uninfected CEM cells
pIC50: −log10 of the molar value. Where a SMILES comes first, the peptide text is derived from it. Bridges are numbered along the chain shown (N, C = ends). The star is where a group is joined. Cbz = O=C(OCc1ccccc1)*
Listing of recorded pIC50 by entry.

Some solved cases for reference:
[[record]]
molecule = "CCNc1ncc2nc(CC(=O)OC)c(=O)n(CC)c2n1"
measured_quantity = "pIC50"
measured_value = "< 3.70"

[[record]]
molecule = "CCOC(=O)C(/C=N\\C(=S)Nc1ccc(OCC)cc1)=C(/O)c1ccccc1"
measured_quantity = "pIC50"
measured_value = "< 3.70"

[[record]]
molecule = "CNC(=O)C1CCCCNC(=O)CCC(NC(=O)OCc2ccccc2)C(=O)N1 (stereo not drawn) (Cbz-Glu-Lys-NHMe; lactam 1-2; configuration not given here)"
measured_quantity = "pIC50"
measured_value = "< 3.70"

[[record]]
molecule = "C[C@]1(CO)CCC[C@@]2(C)C1CC[C@H]1CC3C[C@]12CC[C@]3(C)O (some centres undefined)"
measured_quantity = "pIC50"
measured_value = "< 4.63"

[[record]]
molecule = "NC(CCCCNC(=O)C(Cc1ccccc1)NC(=O)OCc1ccccc1)C(=O)NC(CCCCNC(=O)C(Cc1ccccc1)NC(=O)OCc1ccccc1)C(=O)NC(CCCCNC(=O)C(Cc1ccccc1)NC(=O)OCc1ccccc1)C(=O)NC(CCCCNC(=O)C(Cc1ccccc1)NC(=O)OCc1ccccc1)C(=O)NC(CCCCNC(=O)C(Cc1ccccc1)NC(=O)OCc1ccccc1)C(=O)NC(CCCCNC(=O)C(Cc1ccccc1)NC(=O)OCc1ccccc1)C(=O)O (centres undefined)"
measured_quantity = "pIC50"
measured_value = "< 4.30"


// recorded pIC50 for CC1=C(O[Si](C(C)C)(C(C)C)C(C)C)C2CC1(OS(=O)(=O)C(F)(F)F)[C@H]1C(=O)N(c3ccccc3)C(=O)[C@@H]21 (some centres undefined) : < 5.32

pIC50 for CCN(CC)c1c(-c2c(N(CC)CC)c(OC(C)=O)c3sccn3c2=O)c(=O)n2ccsc2c1OC(C)=O is < 3.70

Data point: Cc1ccc2c(c1C)CC1(Cc3ccc(C)c(C)c3C1=O)C2=O (centres undefined) ; pIC50 = < 4.00

Just so you know, measured pIC50 for O=[N+]([O-])c1ccc(N2N=C(c3ccc(NCc4nc5ccccc5[nH]4)cc3)CC2c2ccco2)cc1 (centres undefined) came out at < 4.82
